# kon per entry
# study.system: human CD33 R69G (human) (UniProt P20138)
# Sequence (P20138 18-259 R69G): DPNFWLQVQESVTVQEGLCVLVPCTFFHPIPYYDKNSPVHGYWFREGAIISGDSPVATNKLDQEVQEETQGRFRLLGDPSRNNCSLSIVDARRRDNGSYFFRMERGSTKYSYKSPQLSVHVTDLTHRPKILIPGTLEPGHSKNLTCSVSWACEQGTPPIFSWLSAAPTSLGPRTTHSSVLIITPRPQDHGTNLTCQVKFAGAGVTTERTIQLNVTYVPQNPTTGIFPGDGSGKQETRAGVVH
# experimental.protocol: SPR, Fab captured, 37C
assay.endpoint: kon (M⁻¹ s⁻¹)

binder	reading
ADI-10159 Fab (Fab, V domains shown) VH: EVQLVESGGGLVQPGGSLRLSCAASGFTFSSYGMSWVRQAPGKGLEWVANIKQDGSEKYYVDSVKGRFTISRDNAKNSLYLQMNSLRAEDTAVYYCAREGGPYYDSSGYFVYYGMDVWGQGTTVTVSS VL: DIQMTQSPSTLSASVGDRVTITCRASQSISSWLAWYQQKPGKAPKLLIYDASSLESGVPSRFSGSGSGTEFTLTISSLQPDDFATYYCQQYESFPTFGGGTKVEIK	426000
ADI-11828 Fab (Fab, V domains shown) VH: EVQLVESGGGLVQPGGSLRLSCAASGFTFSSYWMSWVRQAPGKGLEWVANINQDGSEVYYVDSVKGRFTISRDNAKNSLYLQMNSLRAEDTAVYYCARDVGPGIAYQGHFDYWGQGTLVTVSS VL: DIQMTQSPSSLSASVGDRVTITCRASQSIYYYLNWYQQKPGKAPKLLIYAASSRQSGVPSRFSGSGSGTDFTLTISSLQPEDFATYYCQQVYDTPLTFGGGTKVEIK	1.16e+06
ADI-11807 Fab (Fab, V domains shown) VH: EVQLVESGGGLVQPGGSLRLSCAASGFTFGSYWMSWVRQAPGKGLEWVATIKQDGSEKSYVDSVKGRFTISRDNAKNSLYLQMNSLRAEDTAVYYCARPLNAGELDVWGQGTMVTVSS VL: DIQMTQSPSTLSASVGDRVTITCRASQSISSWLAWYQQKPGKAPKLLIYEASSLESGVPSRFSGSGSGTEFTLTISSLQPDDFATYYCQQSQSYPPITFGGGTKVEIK	597000
ADI-11830 Fab (Fab, V domains shown) VH: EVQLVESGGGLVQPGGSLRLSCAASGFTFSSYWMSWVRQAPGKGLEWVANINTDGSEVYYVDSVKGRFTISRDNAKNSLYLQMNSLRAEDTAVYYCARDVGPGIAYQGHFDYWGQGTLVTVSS VL: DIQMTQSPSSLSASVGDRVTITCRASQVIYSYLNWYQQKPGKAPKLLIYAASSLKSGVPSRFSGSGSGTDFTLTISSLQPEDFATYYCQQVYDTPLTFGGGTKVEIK	2.27e+06
ADI-11825 Fab (Fab, V domains shown) VH: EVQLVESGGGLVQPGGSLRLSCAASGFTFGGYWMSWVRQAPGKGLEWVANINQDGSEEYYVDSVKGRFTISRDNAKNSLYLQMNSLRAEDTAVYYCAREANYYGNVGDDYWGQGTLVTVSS VL: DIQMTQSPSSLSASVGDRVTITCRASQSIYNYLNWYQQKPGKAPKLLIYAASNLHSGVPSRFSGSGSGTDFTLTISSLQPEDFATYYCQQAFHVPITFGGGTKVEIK	1.86e+06
ADI-11812 Fab (Fab, V domains shown) VH: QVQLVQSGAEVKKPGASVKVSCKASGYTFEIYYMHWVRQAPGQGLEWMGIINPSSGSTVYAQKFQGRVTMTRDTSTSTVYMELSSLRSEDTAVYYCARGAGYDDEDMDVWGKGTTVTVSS VL: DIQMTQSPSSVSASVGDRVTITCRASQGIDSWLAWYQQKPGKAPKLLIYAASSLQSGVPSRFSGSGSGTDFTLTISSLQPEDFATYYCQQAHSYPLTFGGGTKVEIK	338000
ADI-11815 Fab (Fab, V domains shown) VH: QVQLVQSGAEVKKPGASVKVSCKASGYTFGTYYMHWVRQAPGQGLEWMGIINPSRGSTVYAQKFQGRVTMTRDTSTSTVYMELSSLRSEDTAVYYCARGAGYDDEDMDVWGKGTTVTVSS VL: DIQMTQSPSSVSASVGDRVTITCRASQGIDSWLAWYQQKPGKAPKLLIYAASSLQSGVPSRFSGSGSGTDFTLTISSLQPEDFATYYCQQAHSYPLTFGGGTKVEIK	300000
ADI-11835 Fab (Fab, V domains shown) VH: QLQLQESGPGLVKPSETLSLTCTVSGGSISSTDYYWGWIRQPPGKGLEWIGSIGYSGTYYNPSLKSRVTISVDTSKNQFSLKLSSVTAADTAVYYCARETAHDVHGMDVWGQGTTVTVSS VL: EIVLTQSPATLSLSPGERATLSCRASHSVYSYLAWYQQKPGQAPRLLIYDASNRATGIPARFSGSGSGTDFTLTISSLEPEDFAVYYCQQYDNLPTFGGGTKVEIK	3.07e+06
ADI-11809 Fab (Fab, V domains shown) VH: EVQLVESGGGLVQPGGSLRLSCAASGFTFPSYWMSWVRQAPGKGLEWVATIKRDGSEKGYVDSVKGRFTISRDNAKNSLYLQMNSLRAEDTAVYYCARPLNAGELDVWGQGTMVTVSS VL: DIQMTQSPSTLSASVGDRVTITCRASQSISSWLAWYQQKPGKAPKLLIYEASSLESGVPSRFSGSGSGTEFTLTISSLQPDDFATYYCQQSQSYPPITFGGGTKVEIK	815000
ADI-10177 Fab (Fab, V domains shown) VH: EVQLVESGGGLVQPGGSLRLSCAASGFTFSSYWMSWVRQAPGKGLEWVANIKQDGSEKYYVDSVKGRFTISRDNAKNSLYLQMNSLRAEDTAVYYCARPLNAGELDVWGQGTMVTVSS VL: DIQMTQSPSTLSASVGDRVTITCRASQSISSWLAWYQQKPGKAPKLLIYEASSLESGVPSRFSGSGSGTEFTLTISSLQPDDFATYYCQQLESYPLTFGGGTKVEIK	230000
